Each record here notes measured pIC50.
# System: Neisseria gonorrhoeae
# method_notes: EC50 determination: plate-based broth growth assay (absorbance at 600 nm) of Neisseria gonorrhoeae
# Type: cell-based
# measurement_context: absorbance 600 nm after 20 hours at 37° C./5% CO2, read-out: IC50 (Inhibitory concentration) against Neisseria gonorrhoeae
pIC50: −log10 of the molar value.

Recorded result, CN1CCN(c2cnc(Nc3nc4cc(C(F)(F)F)ccc4o3)s2)CC1 , pIC50: ≥ 6.00

Others:
Recorded result, Clc1ccc2nc(Nc3nnc(CN4CCCC4)o3)oc2c1 , pIC50: ≥ 7.00

Recorded result, CC(C)(C)c1csc(Nc2nc3cc(C(F)(F)F)ccc3o2)n1 , pIC50: ≥ 5.00

Recorded result, Fc1cc2nc(Nc3nnco3)oc2cc1F , pIC50: ≥ 7.00
